Biological target: human PPAR γ 2 (Homo sapiens, UniProt P37231)
Construct: expressed in transfected cells; host or cells: human osteosarcoma MG63, transiently co-transfected with pSG5-hPPARg and the reporter pGV-P2-PPRE
Sequence (P37231 whole entry): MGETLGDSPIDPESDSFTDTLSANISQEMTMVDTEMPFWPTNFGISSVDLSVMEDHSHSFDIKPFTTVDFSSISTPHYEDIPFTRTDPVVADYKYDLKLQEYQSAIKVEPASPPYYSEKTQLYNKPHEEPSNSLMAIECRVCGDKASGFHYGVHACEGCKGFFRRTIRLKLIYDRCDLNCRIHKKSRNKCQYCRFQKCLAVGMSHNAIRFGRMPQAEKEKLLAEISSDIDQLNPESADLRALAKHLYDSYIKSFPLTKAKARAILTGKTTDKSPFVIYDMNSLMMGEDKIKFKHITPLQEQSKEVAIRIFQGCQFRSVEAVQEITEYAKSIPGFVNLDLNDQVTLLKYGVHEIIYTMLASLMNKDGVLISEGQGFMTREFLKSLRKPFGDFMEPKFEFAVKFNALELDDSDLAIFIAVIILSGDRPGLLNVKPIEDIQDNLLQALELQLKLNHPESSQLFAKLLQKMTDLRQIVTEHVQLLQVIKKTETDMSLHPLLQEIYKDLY
Assay: PPAR γ transcriptional activity, luciferase reporter, test compound alone
Format: cell-based
Conditions: concentration indicating Emax/2, MG63 cells transfected with pSG5-hPPARg and pGV-P2-PPRE, 24 hr
Description: The primers of the polymerase chain reaction (hereinafter “PCR”) were designed according to the gene sequence of human PPAR γ 2 (GenBANK accession No. D83233). In order to insert the genes into the BamHI site of the plasmid pSG5 ([…] CLONING SYSTEMS), Bgl II sites were added upstream and downstream of the genes encoding human PPAR γ 2 protein. […]
EC50 strictly under 20 nM means class 1; at 20 nM or over means class 0.

{"molecule": "O=C(Nc1nc(-c2ccccn2)cs1)c1cc([N+](=O)[O-])ccc1Cl [Example 38]", "test_system": "human PPAR γ 2 (Homo sapiens, UniProt P37231)", "class_name": "class 0"}
{"molecule": "CCCCCCN(CCCCCC)c1ccc(NC(=O)c2cc([N+](=O)[O-])ccc2Cl)cc1 [Example 138]", "test_system": "human PPAR γ 2 (Homo sapiens, UniProt P37231)", "class_name": "class 0"}
{"molecule": "CC(O)c1cccc(NC(=O)c2cc([N+](=O)[O-])ccc2Cl)c1 (stereo not drawn) [Example 239]", "test_system": "human PPAR γ 2 (Homo sapiens, UniProt P37231)", "class_name": "class 0"}

stdin: # TODO verify EC50 < 20 nM strictly for this molecule: O=C(Nc1ccc2c3c(cccc13)CC2)c1cc([N+](=O)[O-])ccc1Cl [Example 54]
stdout: class 1

stdin: is_below(EC50, 20 nM) for O=C(Nc1cccc(NS(=O)(=O)c2ccccc2)c1)c1cc([N+](=O)[O-])ccc1Cl [Example 30] ?
stdout: class 1

stdin: Given the entry O=C(Nc1ccc(-c2ccccn2)cc1)c1cc([N+](=O)[O-])ccc1Cl [Example 8] , would its reported EC50 be below 20 nM?
stdout: class 0

stdin: Confirm or reject: EC50 of O=C(Nc1cccc(-c2ccccc2)c1)c1cc([N+](=O)[O-])ccc1Cl [Example 5] lies strictly below 20 nM
stdout: class 0

stdin: Quick check: does O=C(Nc1ccc(S(=O)(=O)Nc2nccs2)cc1)c1cc([N+](=O)[O-])ccc1Cl [Example 96] have EC50 under 20 nM?
stdout: class 0

stdin: Item O=C(Nc1nncs1)c1cc([N+](=O)[O-])ccc1Cl [Example 85] : EC50 beneath 20 nM, strictly?
stdout: class 0

stdin: For O=C(Nc1ccc(S(=O)(=O)Nc2cccnc2)cc1)c1cc([N+](=O)[O-])ccc1Cl [Example 178] , is the recorded EC50 below the cut-off of 20 nM?
stdout: class 1

stdin: Please check: EC50 for CC(=O)Nc1ccc(NC(=O)c2cc([N+](=O)[O-])ccc2Cl)cc1 [Example 117] , strictly under 20 nM or not?
stdout: class 1

stdin: Lab log: compare recorded EC50 with 20 nM; is it strictly lower for O=C(Nc1ccc(O)cc1)c1cc([N+](=O)[O-])ccc1Cl [Example 193] ?
stdout: class 0

stdin: Dear colleague, could you confirm whether EC50 of O=C(Nc1ccc(NC(=S)Nc2ccncc2)cc1)c1cc([N+](=O)[O-])ccc1Cl [Example 259] falls below 20 nM? Thanks.
stdout: class 1

stdin: Consider the molecule O=C(Nc1nc(-c2cccnc2)cs1)c1cc([N+](=O)[O-])ccc1Cl [Example 37] . Is its EC50 strictly less than 20 nM?
stdout: class 0
